Values from the Human Domainome abundance scans (Beltran et al. 2025)

B1: Pre-mRNA-processing factor 40 homolog B, residues 274 to 332; numbered along this chain, Q6NWY9 (parent)
chain: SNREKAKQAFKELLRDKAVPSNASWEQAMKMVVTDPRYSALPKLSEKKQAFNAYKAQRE

variants of: B1; assay: abundance fitness (aPCA) (normalised: wild type 0, dead -1); higher = more abundant; growth selection in yeast, the domain comes from the species named; conditions: Homo sapiens
measuredProperty: abundance fitness

mutation=Q8H number=-0.341
mutation=A6L number=-0.566
mutation=F51W number=-0.61
mutation=K17L number=-0.605
mutation=R58F number=-0.162
mutation=M29R number=-0.078
mutation=E26K number=-0.169
mutation=A50H number=-0.606
mutation=R58K number=0.008
mutation=L13H number=-0.411
mutation=A50I number=-0.194
